// provenance: paper PMC10977726

biological target: human IgG Fc (Biotin-SP-ChromPure Human IgG, Fc fragment) (human, biotin (Biotin-SP)); assay: SPR; […]; Biacore S200, […] (PBS with 0.05% Tween 20, pH 7.4); […]; conditions: both partners purified
VALUE_KIND: Kd

BINDER: VGECVRGRCSQISCCSQFGYCGKGPKYCG (designed binder) [Ig-AMP-3]
ENDPOINT_RESULT: 353 nM
//
BINDER: CKGKGAKCSRLMYDCCTGSCRSGKC [WT CON]
ENDPOINT_RESULT: > 20000 nM
//
BINDER: GCGYWYMQWFCKQDSDCLAGCVCRPKPECG (designed binder) [Ig-EET-4]
ENDPOINT_RESULT: 948 nM
//
BINDER: VGECVRGRCSKISCCSQFGYCGKGPKYCG (designed binder) [Ig-AMP-1]
ENDPOINT_RESULT: 243 nM
//
BINDER: GCQAHYWYRVWFCKQDSDCLAGCVCGPNGFCG (designed binder) [Ig-EET-1]
ENDPOINT_RESULT: 228 nM
//
BINDER: VGECVRGRCSSISCCSQFGYCGKGPKYCG (designed binder) [Ig-AMP-4]
ENDPOINT_RESULT: > 1000 nM
